Target: LHRH receptor (LHRH binding sites) on EFO-27 human ovarian cancer cells (human)
Assay: competition with [125I-Tyr8]BRU-2477, EFO-27 cells
pEC50: −log10 of the molar value. Non-standard residues stand in square brackets, D forms with d. Primed or numbered codes have the meaning given here. azaGly′ = aza-glycine residue at the C-terminus, with NH2; Bpa = N[C@@H](Cc1ccc(C(=O)c2ccccc2)cc1)C(=O)O; d2Nal = N[C@H](Cc1ccc2ccccc2c1)C(=O)O; DO3A10CM = not defined here; Ampc4 = not defined here
The following binders are listed with their measured pEC50 values.
Metric: pEC50

| Binder | Experimental value |
| --- | --- |
| KXRWSHXWXPX (N-terminal DO3A10CM; Lys linker before 1; Dnal2 at 1; Darg at 6; Bpa4 at 8; azaGly-NH2 at 10) [BRU-3097] | 6.35 |
| XRWSHXWXP (N-terminal DO3A10CM; Dnal2 at 1; Darg at 6; Bpa4 at 8; C-terminal Ap (aminophenyl) at 10) [BRU-3006] | 6.38 |
| GXRWSHXWXPX (N-terminal DO3A10CM; Gly linker before 1; Dnal2 at 1; Darg at 6; Bpa4 at 8; azaGly-NH2 at 10) [BRU-2962] | 6.33 |
| DO3A10CM-[d2Nal]RWSH[dR]W[Bpa][Ampc4][azaGly′]-NH2 (reading uncertain; also: printed as DO3A10CM-Dnal2-Arg-Trp-Ser-His-Darg-Trp-Bpa4-Ampc4-azaGly-NH2) [BRU-3062] | 6.49 |
| KXRWSHXWXPX (Lys(DO3A10CM) before 1 (chelator on the Lys side chain); Dnal2 at 1; Darg at 6; Bpa4 at 8; azaGly-NH2 at 10) [BRU-3098] | 6.39 |
| XRWSHXWXP (Ac-Dnal2 at 1; Darg at 6; Bpa4 at 8; C-terminal Da15o3pt linker carrying DO3A10CM) [BRU-2992] | 6.33 |
